# Subject of test: HIV Env of isolate 3016.v5.c45 (clade D) (HIV)
# Assay method text: cell-based or functional assay
Property: IC50 (µg/ml) with constrains

// query IC50 (µg/ml) with constrains value for entry ePGDM5 (antibody, V domains shown) VH: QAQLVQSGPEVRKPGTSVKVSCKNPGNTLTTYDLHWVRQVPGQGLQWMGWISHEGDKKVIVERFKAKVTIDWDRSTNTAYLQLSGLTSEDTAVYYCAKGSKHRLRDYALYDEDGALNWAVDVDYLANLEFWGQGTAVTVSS VL: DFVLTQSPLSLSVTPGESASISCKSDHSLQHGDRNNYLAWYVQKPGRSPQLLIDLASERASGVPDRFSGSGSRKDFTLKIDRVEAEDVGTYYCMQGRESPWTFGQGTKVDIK > 100 µg/mL
